Below: a set of entries, each annotated with reported Kd.
targetEntity: T1, rat DLL4 extracellular domain (rat, UniProt D3ZHH1 28-530)
T1 construct: extracellular domain; also called ratDLL4 ECD
T1 sequence (D3ZHH1 28-530): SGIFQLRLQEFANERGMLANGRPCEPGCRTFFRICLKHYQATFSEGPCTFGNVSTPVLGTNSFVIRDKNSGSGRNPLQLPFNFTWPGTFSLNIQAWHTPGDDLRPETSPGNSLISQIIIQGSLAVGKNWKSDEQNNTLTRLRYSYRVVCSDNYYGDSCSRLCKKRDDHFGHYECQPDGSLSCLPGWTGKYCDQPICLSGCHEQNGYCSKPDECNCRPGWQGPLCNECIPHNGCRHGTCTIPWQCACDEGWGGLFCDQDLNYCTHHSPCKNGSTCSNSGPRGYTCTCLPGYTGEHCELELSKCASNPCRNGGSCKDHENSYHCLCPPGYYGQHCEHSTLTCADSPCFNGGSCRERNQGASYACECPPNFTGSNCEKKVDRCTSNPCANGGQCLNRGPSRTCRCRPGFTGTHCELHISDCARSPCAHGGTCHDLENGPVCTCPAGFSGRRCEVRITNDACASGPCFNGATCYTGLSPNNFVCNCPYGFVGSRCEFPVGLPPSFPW
procedureDetails: SPR (Biacore)
Kindly write the number and append the unit.

{"binder": "h1A11.A8 (antibody, V domains shown, also called h1A11.A8 VH / h1A11VL.1) VH: EVQLVESGGGLVQPGGSLRLSCAASGFTFGNFPMSWVRQAPGKGLEWVASISSSDSWATIGDSVKGRFTISRDNAKNSLYLQMNSLRAEDTAVYYCSRGYYNSPFAYWGQGTLVTVSS VL: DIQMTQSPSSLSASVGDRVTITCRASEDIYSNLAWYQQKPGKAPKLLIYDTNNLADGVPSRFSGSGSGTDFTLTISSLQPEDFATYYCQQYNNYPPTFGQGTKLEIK", "valueType": "Kd", "recordedMeasurement": "47 nM"}

Field: next binder
Consider h1A11.B5 (antibody, V domains shown, also called h1A11.B5 VH / h1A11.B5 VL) VH: EVQLVESGGGLVQPGGSLRLSCAASGFTFRYFPMSWVRQAPGKGLEWVASISGSDGWASYRDSVKGRFTISRDNAKNSLYLQMNSLRAEDTAVYYCARGYYNSPFASWGQGTLVTVSS VL: DIQMTQSPSSLSASVGDRVTITCRASQDIWNNLAWYQQKPGKSPKLLIFDTSYLADGVPSRFSGSGSGTDFTLTISSLQPEDFATYYCQQYDWYPPTFGQGTKLEIK . Its measured Kd is 410 nM
